meta.source: patent US20210292393A1

target: SARS-CoV-2 spike protein (SARS-CoV-2), P0DTC2; settings: remark: other sources report otherwise
Hi there, I'd appreciate the recorded pKd for every entry that follows.
Give bare numbers, as −log10 of the molar value.

Binder | pKd
antibody 464 (antibody, V domains shown) VH: QVQLVQSGAEVKKPGASVKVSCKVSGYTLTELSMHWVRQAPGKGLEWMGGFDPEDGETIYAQKFQGRVTMTEDTSTDTAYMELSSLRSEDTAVYYCATARAFGVANWFDPWGQGTLVTVSS VL: QSVLTQPPSASGTPGQRVTISCSGSSSNIGSNYVYWYQQLPGTAPKLLIYRNNQRPSGVPDRFSGSKSGTSASLAISGLRSEDEADYYCAAWDDSLSGLYVFGTGTKVTVL | 8.34

Next binder, please.
Input antibody 444 (antibody, V domains shown) VH: QVQLVESGGGLVKPGGSLRLSCAASGFTFSDYYMSWIRQAPGKGLEWVSYISSSGSTIYYADSVKGRFTISRDNAKNSLYLQMNSLRAEDTAVYYCARERKVVVAATRNYYYYYGMDVWGQGTTVTVSS VL: SYELTQPPSVSVSPGQTARITCSGDALPKQYAYWYQQKPGQAPVLVIYKDSERPSGIPERFSGSSSGTTVTLTISGVQAEDEADYYCQSADSSTWVFGGGTKLTVL , output reported pKd.
7.57
